Values from ChEMBL document CHEMBL1144170

# Assayed target: Neuropeptide Y receptor type 5 (Homo sapiens, UniProt Q15761)
# Sequence (Q15761 whole entry): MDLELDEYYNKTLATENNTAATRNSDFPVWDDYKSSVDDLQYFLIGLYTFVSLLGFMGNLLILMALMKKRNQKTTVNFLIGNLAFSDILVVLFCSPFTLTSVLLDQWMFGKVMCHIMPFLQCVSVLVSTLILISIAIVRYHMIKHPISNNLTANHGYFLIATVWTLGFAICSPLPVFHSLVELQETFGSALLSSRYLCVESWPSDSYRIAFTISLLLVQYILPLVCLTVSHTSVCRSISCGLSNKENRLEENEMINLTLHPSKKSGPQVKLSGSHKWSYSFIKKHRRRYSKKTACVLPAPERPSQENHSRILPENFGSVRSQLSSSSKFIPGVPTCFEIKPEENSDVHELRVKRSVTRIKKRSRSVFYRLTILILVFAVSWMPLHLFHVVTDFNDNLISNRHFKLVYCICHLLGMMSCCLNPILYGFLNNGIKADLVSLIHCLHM
# Protocol notes: Displacement of [125I]PYY from human recombinant NPYY5 receptor expressed in mouse LMtk cells
# Format: cell-based
pIC50: −log10 of the molar value.
Reported pIC50 by item:
Readout label: pIC50

# Record smiles, Reported value
data = [
    ("O=C1O[C@]2(CC[C@H](c3nc4ccccc4[nH]3)CC2)c2ccccc21", 7.04),
    ("O=C1O[C@]2(CC[C@H](c3nc4cc(Cl)c(C(F)(F)F)cc4[nH]3)CC2)c2ccccc21", 8.59),
    ("O=C1O[C@]2(CC[C@H](c3nc4ccc(-c5ccc(F)cc5)cc4[nH]3)CC2)c2ccccc21", 8.77),
    ("O=C1O[C@]2(CC[C@H](c3nc4cc(Cl)c(Cl)cc4[nH]3)CC2)c2ccccc21", 8.10),
    ("O=C1O[C@]2(CC[C@H](c3nc4cc(-c5cccnc5)ccc4[nH]3)CC2)c2ccccc21", 8.51),
]
